TEST SYSTEM: human melanocortin-4 receptor (human, UniProt P32245 1-332)
Sequence (P32245 whole entry): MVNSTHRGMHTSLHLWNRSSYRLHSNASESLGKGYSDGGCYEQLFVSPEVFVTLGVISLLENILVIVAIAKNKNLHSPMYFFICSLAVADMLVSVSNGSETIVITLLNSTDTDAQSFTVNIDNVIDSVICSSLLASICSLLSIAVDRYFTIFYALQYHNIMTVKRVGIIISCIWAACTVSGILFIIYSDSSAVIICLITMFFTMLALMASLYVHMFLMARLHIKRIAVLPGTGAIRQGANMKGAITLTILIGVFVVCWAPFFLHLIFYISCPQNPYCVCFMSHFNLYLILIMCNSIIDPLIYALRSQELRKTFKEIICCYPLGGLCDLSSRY
PROTOCOL: cell-based or functional assay
Positions of bridges follow the written chain, without caps; N, C: chain ends. Non-standard residues stand in square brackets, D forms with d. dPhe(2-CF3) = N[C@H](Cc1ccccc1C(F)(F)F)C(=O)O; dPhe(3,5-F2) = N[C@H](Cc1cc(F)cc(F)c1)C(=O)O; dPhe(4-CN) = N#Cc1ccc(C[C@@H](N)C(=O)O)cc1; dPhe(2-Cl) = N[C@H](Cc1ccccc1Cl)C(=O)O; dPhe(2-Me) = Cc1ccccc1C[C@@H](N)C(=O)O; Orn = NCCC[C@H](N)C(=O)O
PROPERTY MEASURED: Intrinsic Activity, cAMP, 10 ng/mL Doxycycline

[
  {
    "BINDER": "Ac-RKQ[dPhe(4-CN)]RWD-NH2 (lactam 2-7; SMILES CC(=O)N[C@@H](CCCNC(=N)N)C(=O)N[C@H]1CCCCNC(=O)C[C@@H](C(N)=O)NC(=O)[C@H](Cc2c[nH]c3ccccc23)NC(=O)[C@H](CCCNC(=N)N)NC(=O)[C@@H](Cc2ccc(C#N)cc2)NC(=O)[C@H](CCC(N)=O)NC1=O, also called No. 93) [Ac-Arg-cyclo(Lys-Gln-D-Phe(4-CN)-Arg-Trp-Asp)-NH2]",
    "OBSERVED RESULT": "97%"
  },
  {
    "BINDER": "Ac-RET[dPhe(2-Cl)]RW[Orn]-NH2 (lactam 2-7; SMILES CC(=O)N[C@@H](CCCNC(=N)N)C(=O)N[C@H]1CCC(=O)NCCC[C@@H](C(N)=O)NC(=O)[C@H](Cc2c[nH]c3ccccc23)NC(=O)[C@H](CCCNC(=N)N)NC(=O)[C@@H](Cc2ccccc2Cl)NC(=O)[C@H]([C@@H](C)O)NC1=O, also called No. 32) [Ac-Arg-cyclo(Glu-Thr-D-Phe(2-Cl)-Arg-Trp-Orn)-NH2]",
    "OBSERVED RESULT": "96%"
  },
  {
    "BINDER": "Ac-R[Orn]N[dPhe(2-Me)]RWE-NH2 (lactam 2-7, also called No. 74) [Ac-Arg-cyclo(Orn-Asn-D-Phe(2-Me)-Arg-Trp-Glu)-NH2]",
    "OBSERVED RESULT": "100%"
  },
  {
    "BINDER": "Ac-R[Orn]N[dPhe(4-CN)]RWE-NH2 (lactam 2-7, also called No. 91) [Ac-Arg-cyclo(Orn-Asn-D-Phe(4-CN)-Arg-Trp-Glu)-NH2]",
    "OBSERVED RESULT": "96%"
  },
  {
    "BINDER": "Ac-R[Orn]N[dPhe(2-CF3)]RWE-NH2 (lactam 2-7) [Ac-Arg-cyclo(Orn-Asn-D-Phe(2-CF3)-Arg-Trp-Glu)-NH2]",
    "OBSERVED RESULT": "112%"
  },
  {
    "BINDER": "XDQXRWK (N-terminal Ac; D-Arg 1; D-Phe(2-F) 4; lactam Asp 2-Lys 7; C-terminal NH2, also called No. 82) [Ac-D-Arg-cyclo(Asp-Gln-D-Phe(2-F)-Arg-Trp-Lys)-NH2]",
    "OBSERVED RESULT": "95%"
  },
  {
    "BINDER": "Ac-R[Orn]Q[dPhe(4-CN)]RWE-NH2 (lactam 2-7, also called No. 94) [Ac-Arg-cyclo(Orn-Gln-D-Phe(4-CN)-Arg-Trp-Glu)-NH2]",
    "OBSERVED RESULT": "92%"
  },
  {
    "BINDER": "Ac-REN[dPhe(3,5-F2)]RW[Orn]-NH2 (lactam 2-7, also called No. 76) [Ac-Arg-cyclo(Glu-Asn-D-Phe(3,5-diF)-Arg-Trp-Orn)-NH2]",
    "OBSERVED RESULT": "85%"
  },
  {
    "BINDER": "Ac-RES[dPhe(4-CN)]RW[Orn]-NH2 (lactam 2-7; SMILES CC(=O)N[C@@H](CCCNC(=N)N)C(=O)N[C@H]1CCC(=O)NCCC[C@@H](C(N)=O)NC(=O)[C@H](Cc2c[nH]c3ccccc23)NC(=O)[C@H](CCCNC(=N)N)NC(=O)[C@@H](Cc2ccc(C#N)cc2)NC(=O)[C@H](CO)NC1=O, also called No. 45) [Ac-Arg-cyclo(Glu-Ser-D-Phe(4-CN)-Arg-Trp-Orn)-NH2]",
    "OBSERVED RESULT": "87%"
  }
]
